# key: entry, value: Adriamycinaufnahme (in % der unbehandelten Kontrolle ohne Zusatz) resistente L1210
Tested on: resistente L1210 Leukämiezellen
Experiment: Adriamycin uptake in adriamycin-resistant L1210 cells with and without a lipophilic anthracycline (HPLC/fluorescence)
Type: cell-based
Conditions: anthracycline 10 µg/ml; 1 h, 37°C; resistant L1210
Please reply with the bare figure in % and do not write the unit itself.

[
  {
    "Molecule smiles": "CCCCCN(C)[C@H]1C[C@H](O[C@H]2C[C@](O)(CC)[C@H](O)c3c(O)c4c(c(O)c32)C(=O)c2c(O)cccc2C4=O)O[C@@H](C)[C@H]1O",
    "Observed value": 209
  },
  {
    "Molecule smiles": "CC[C@@]1(O)C[C@H](O)c2c(O)c3c(c(O)c2[C@H]1C(=O)OC)C(=O)c1c(O)ccc(O)c1C3=O",
    "Observed value": 144
  },
  {
    "Molecule smiles": "CC[C@@]1(O)C[C@H](O)c2c(O)c3c(c(O)c2[C@H]1O)C(=O)c1cccc(O)c1C3=O",
    "Observed value": 186
  }
]

Entry CCCCCCN(C)[C@H]1C[C@H](O[C@H]2C[C@](O)(CC)[C@H](O)c3c(O)c4c(c(O)c32)C(=O)c2c(O)cccc2C4=O)O[C@@H](C)[C@H]1O has what Adriamycinaufnahme (in % der unbehandelten Kontrolle ohne Zusatz) resistente L1210?
197
